- Tested on: NQO1 specific enzyme activity in BEAS-2B cells (marker for NRF2 activation)
- assay.details: BEAS-2B NQO1 MTT Assay
- Type: cell-based
- conditions.used: Homo sapiens, BEAS-2B, 48 h, compound incubated 48 hours, read-out: EC50 (NQO1 specific enzyme activity induction)
measured.metric: EC50

Solved entries:
| molecule | measured.metric | val |
| --- | --- | --- |
| CCC[C@@H]1CCCCN1C(=O)c1cccc(-c2cccc(-n3ncc(C(=O)O)c3[C@H]3C[C@@H]3c3cn(C)nn3)c2)c1 [Example 51g] | EC50 | 1000 to 10000 nM |
| C[C@H](Oc1cccc(-c2cccc(-n3ncc(C(=O)O)c3[C@@H]3C[C@H]3c3cn(C)nn3)c2)c1)C1CCCCC1 (racemic) [Example 75] | EC50 | 1 to 10 nM |

Now take the following molecule into account.
What reported EC50 corresponds to CCC[C@@H]1CCCCN1C(=O)c1cc(F)cc(-c2cccc(-n3ncc(C(=O)O)c3C3CC3c3cn(C)nn3)c2)c1 (stereo partly drawn) [Example 198] on NQO1 specific enzyme activity in BEAS-2B cells (marker for NRF2 activation)? 100 to 1000 nM
